Target: human CD4 (CD4-YFP) expression in CHO•CD4-YFP cells (Homo sapiens)
Assay: CD4 down-modulation in CHO cells stably expressing CD4-YFP
Type: cell-based
Conditions: read-out: IC50 CD4 (μM) mean ± SD; 50% down-modulation of CD4 expression, CD4-YFP transfected CHO cells, 24 h drug treatment; n ≥ 3; benzyl-tailed compounds
measuredParameter: DC50 (µM)

C=C1CN(S(=O)(=O)c2ccccc2)CCCN(Cc2ccccc2)CCCN(S(=O)(=O)c2ccc(C)cc2)C1    1.46
C=C1CN(S(=O)(=O)c2ccc(C)cc2)CCCN(Cc2ccccc2)CCCN(S(=O)(=O)c2ccc(N(C)C)cc2)C1    0.17
C=C1CN(S(=O)(=O)c2ccc(C)cc2)CCCN(Cc2ccccc2)CCCN(S(=O)(=O)c2ccc([N+](=O)[O-])cc2)C1    5.25
C=C1CN(C(=O)c2ccccc2)CCCN(Cc2ccccc2)CCCN(S(=O)(=O)c2ccc(C)cc2)C1    7.32
C=C1CN(S(=O)(=O)c2ccc(C)cc2)CCCN(Cc2ccccc2)CCCN(S(=O)(=O)c2ccc(OC)cc2OC)C1    1.35
C=C1CN(S(=O)(=O)c2ccc(C)cc2)CCCN(Cc2ccccc2)CCCN(S(=O)(=O)c2ccn(C)c2)C1    3.17
C=C1CN(S(=O)(=O)c2ccc(C)cc2)CCCN(Cc2ccccc2)CCCN(S(=O)(=O)N(C)C)C1    1.58
C=C1CN(S(=O)(=O)c2ccc(C)cc2)CCCN(Cc2ccccc2)CCCN(S(=O)(=O)c2ccc(OC)cc2)C1 [Compound 50, reference compound]    0.29
C=C1CN(S(=O)(=O)c2ccc(C)cc2)CCCN(Cc2ccccc2)CCCN(S(=O)(=O)c2ccccc2[N+](=O)[O-])C1    0.7
C=C1CN(S(=O)(=O)c2ccc(C)cc2)CCCN(Cc2ccccc2)CCCN(S(=O)(=O)c2ccc(OC)c(OC)c2)C1    0.31

I: C=C1CN(S(=O)(=O)c2ccc(C)cc2)CCCN(Cc2ccccc2)CCCN(S(=O)(=O)c2ccc(OC(F)(F)F)cc2)C1
II: C=C1CN(S(=O)(=O)c2ccc(C)cc2)CCCN(Cc2ccccc2)CCCN(S(=O)(=O)c2ccc3ccccc3c2)C1
Enquiry: Smaller DC50 value? Options are I and II Output the label that corresponds to your choice.
Return: II
(II: 0.55 µM, I: 1.2 µM)

I: C=C1CN(S(=O)(=O)c2ccc(C)cc2)CCCN(Cc2ccccc2)CCCN(S(=O)(=O)c2ccc(O)cc2)C1
II: C#CCOc1ccc(S(=O)(=O)N2CCCN(Cc3ccccc3)CCCN(S(=O)(=O)c3ccc(C)cc3)CC(=C)C2)cc1
Enquiry: Recorded DC50 values differ for I and II ; which one is higher? Output the label that corresponds to your choice.
Return: I

----------
Target: human CD4 (CD4-YFP) expression in CHO•CD4-YFP cells (Homo sapiens, UniProt P01730)
Assay: CD4 down-modulation in CHO cells stably expressing CD4-YFP
Assay type: cell-based
Conditions: read-out: IC50 CD4 (μM) mean ± SD; 50% down-modulation of CD4 expression, CD4-YFP transfected CHO cells, 24 h drug treatment; n ≥ 3; benzyl-tailed compounds
measuredParameter: DC50 (µM)

Example results:
C=C1CN(S(=O)(=O)c2ccc(C)cc2)CCCN(Cc2ccccc2)CCCN(S(=O)(=O)c2ccc3c(c2)OCO3)C1 [Compound 33]    1.06
C=C1CN(C(=O)c2ccc(C)cc2)CCCN(Cc2ccccc2)CCCN(S(=O)(=O)c2ccc(C)cc2)C1 [Compound 59]    3.78
C=C1CN(S(=O)(=O)c2ccc(C)cc2)CCCN(Cc2ccccc2)CCCN(S(=O)(=O)c2cccc([N+](=O)[O-])c2)C1 [Compound 34]    2.02
C=C1CN(S(=O)(=O)c2ccc(C)cc2)CCCN(Cc2ccccc2)CCCN(S(=O)(=O)c2cccc(N(C)C)c2)C1 [Compound 38]    0.79
C=C1CN(S(=O)(=O)c2ccc(C)cc2)CCCN(Cc2ccccc2)CCCN(S(=O)(=O)N2CCOCC2)C1 [Compound 63]    1.08
C=C1CN(S(=O)(=O)c2ccc(C)cc2)CCCN(Cc2ccccc2)CCCN(S(=O)(=O)c2ccc(N)cc2)C1 [Compound 45]    2.42
C=C1CN(S(=O)(=O)c2ccc(C)cc2)CCCN(Cc2ccccc2)CCCN(S(=O)(=O)c2ccc(F)cc2)C1 [Compound 37]    0.92

P: C=C1CN(S(=O)(=O)c2ccc(C)cc2)CCCN(Cc2ccccc2)CCCN(S(=O)(=O)c2cccc(N)c2)C1 [Compound 44]
Q: C=C1CN(C(=O)c2ccc(OC)cc2)CCCN(Cc2ccccc2)CCCN(S(=O)(=O)c2ccc(C)cc2)C1 [Compound 58]
R: C=C1CN(S(=O)(=O)c2ccc(C)cc2)CCCN(Cc2ccccc2)CCCN(S(=O)(=O)c2ccc(SC)cc2)C1 [Compound 41]
S: C=C1CN(S(=O)(=O)c2ccc(C)cc2)CCCN(Cc2ccccc2)CCCN(S(=O)(=O)c2ccccc2N)C1 [Compound 43]
T: C=C1CN(S(=O)(=O)c2ccc(C)cc2)CCCN(Cc2ccccc2)CCCN(S(=O)(=O)c2ccc(OC(=S)N(C)C)cc2)C1 [Compound 57]
Enquiry: Please give the order of these compounds when sorted by DC50, largest value leading. Could you list the labels in the order requested?
Return: T, Q, S, P, R
